Values were extracted from patent US11292796B2.

What follows is a collection of pIC50 values obtained with mTOR (Homo sapiens, UniProt P42345).
Sequence (P42345 1360-2549 limits assumed): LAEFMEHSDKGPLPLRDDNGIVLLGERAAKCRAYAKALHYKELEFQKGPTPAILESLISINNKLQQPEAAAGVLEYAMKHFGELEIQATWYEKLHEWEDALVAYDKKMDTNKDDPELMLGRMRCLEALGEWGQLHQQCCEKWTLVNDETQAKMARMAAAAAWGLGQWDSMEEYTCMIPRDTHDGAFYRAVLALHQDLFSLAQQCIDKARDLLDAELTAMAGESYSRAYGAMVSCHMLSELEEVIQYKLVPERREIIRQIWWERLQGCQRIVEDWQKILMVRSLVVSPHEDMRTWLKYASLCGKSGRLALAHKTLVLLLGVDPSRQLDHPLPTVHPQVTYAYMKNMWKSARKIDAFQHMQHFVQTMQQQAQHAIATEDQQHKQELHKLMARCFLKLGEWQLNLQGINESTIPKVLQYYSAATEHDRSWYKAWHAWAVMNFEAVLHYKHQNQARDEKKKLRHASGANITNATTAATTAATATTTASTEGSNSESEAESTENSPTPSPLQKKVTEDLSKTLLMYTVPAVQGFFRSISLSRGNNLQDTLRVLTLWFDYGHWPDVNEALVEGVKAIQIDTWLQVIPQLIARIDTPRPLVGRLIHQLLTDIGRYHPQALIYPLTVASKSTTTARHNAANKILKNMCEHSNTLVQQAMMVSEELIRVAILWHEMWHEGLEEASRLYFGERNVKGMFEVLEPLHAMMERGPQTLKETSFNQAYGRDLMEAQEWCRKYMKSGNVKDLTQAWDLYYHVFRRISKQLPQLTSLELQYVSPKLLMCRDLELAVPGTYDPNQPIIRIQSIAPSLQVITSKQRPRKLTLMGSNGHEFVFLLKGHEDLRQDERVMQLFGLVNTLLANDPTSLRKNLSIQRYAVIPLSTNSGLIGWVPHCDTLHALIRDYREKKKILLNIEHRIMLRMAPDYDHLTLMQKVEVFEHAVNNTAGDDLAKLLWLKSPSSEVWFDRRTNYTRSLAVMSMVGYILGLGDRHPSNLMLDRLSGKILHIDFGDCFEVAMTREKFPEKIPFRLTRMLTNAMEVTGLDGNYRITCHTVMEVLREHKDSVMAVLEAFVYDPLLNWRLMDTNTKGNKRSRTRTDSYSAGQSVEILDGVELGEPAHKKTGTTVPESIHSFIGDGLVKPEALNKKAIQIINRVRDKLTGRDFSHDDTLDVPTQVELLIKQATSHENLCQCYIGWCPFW
pIC50: −log10 of the molar value.

Consider the following illustrative entries.
[
  {
    "SMILES INPUT": "CO[C@H]1CC[C@@H](N2CC(=O)Nc3ncc(-c4ccc(C#N)nc4C)nc32)CC1",
    "TEST VALUE": "5.00 to 6.00"
  },
  {
    "SMILES INPUT": "CO[C@H]1CC[C@H](N2C(=O)CNc3ncc(-c4ccc(C(C)(C)O)cc4)nc32)CC1",
    "TEST VALUE": "6.60 to 11.30"
  }
]

Lab book: pIC50 of COCCN1C(=O)CNc2ncc(-c3ccc(-c4nc[nH]n4)c(F)c3C)nc21 noted as 6.60 to 11.30

Lab book: pIC50 of O=C1CNc2ncc(-c3ccc(-c4nc[nH]n4)nc3)nc2N1[C@H]1CC[C@@H](O)CC1 noted as 6.60 to 11.30

Lab book: pIC50 of CC(C)(O)c1ccc(-c2cnc3c(n2)N(Cc2cccc(C(F)(F)F)c2)C(=O)CN3)cn1 noted as 6.60 to 11.30

Lab book: pIC50 of COCCN1C(=O)CNc2ncc(-c3ccc(C(C)(C)O)cc3)nc21 noted as 5.00 to 6.00

Lab book: pIC50 of Cc1c(-c2cnc3c(n2)N(CCC2CCOCC2)CC(=O)N3)ccc(-c2nnc[nH]2)c1F noted as 6.60 to 11.30

Lab book: pIC50 of O=C1CNc2ncc(-c3ccc4cn[nH]c4c3)nc2N1CCC1CCOCC1 noted as 6.60 to 11.30

Lab book: pIC50 of O=C1CN(CCC2CCOCC2)c2nc(-c3ccc4cc[nH]c4c3)cnc2N1 noted as 6.30 to 6.60

Lab book: pIC50 of Cc1cc(-c2nc[nH]n2)c(F)cc1-c1cnc2c(n1)N([C@H]1CC[C@H](O)CC1)CC(=O)N2 noted as 6.60 to 11.30

Lab book: pIC50 of CC(C)(O)c1ccc(-c2cnc3c(n2)N(CCC2CCOCC2)C(C)(C)C(=O)N3)cn1 noted as 6.00 to 6.30

###

What follows is a collection of pIC50 values obtained with mTOR (Homo sapiens).
pIC50: −log10 of the molar value.

[
  {
    "COMPOUND": "O=C1Nc2ncc(-c3ccc(-c4nnc[nH]4)nc3)nc2N2CCOCC12 (centres unmarked)",
    "EXPERIMENTAL SYSTEM": "mTOR (Homo sapiens)",
    "pIC50": "6.00 to 6.30"
  }
]

Lab book: pIC50 of N#Cc1cccc(-c2cnc3c(n2)N(CCC2CCOCC2)CC(=O)N3)c1 noted as 6.00 to 6.30

Lab book: pIC50 of Cc1cc(-c2nc[nH]n2)ncc1-c1cnc2c(n1)N(C(C)C)C(=O)CN2 noted as 6.60 to 11.30

Lab book: pIC50 of CO[C@H]1CC[C@H](CN2C(=O)CNc3ncc(-c4cnc(-c5nc[nH]n5)cc4C)nc32)CC1 noted as 6.60 to 11.30

Lab book: pIC50 of O=C1CNc2ncc(-c3cccc4[nH]cnc34)nc2N1CCC1CCOCC1 noted as 6.00 to 6.30

###

- EXPERIMENTAL SYSTEM: mTOR (Homo sapiens, UniProt P42345)
pIC50: −log10 of the molar value.
QUANTITY KIND: pIC50

[
  {
    "COMPOUND": "CNc1nc2c(C)cc(-c3cnc4c(n3)N(CCC3CCOCC3)CC(=O)N4)cc2[nH]1 [Example 139]",
    "QUANTITY KIND": "pIC50",
    "TEST VALUE": "6.60 to 11.30"
  }
]

Lab entry: mTOR (Homo sapiens, UniProt P42345) assay, compound Cc1cc(-c2nc[nH]n2)c(F)cc1-c1cnc2c(n1)N([C@H]1CC[C@H](O)CC1)C(=O)CN2 [Example 174] , pIC50 = 6.60 to 11.30

Lab entry: mTOR (Homo sapiens, UniProt P42345) assay, compound Cc1cc(-c2nnc[nH]2)ccc1-c1cnc2c(n1)N1CCCCC1C(=O)N2 (centres unmarked) [Example 120] , pIC50 = 6.60 to 11.30

Lab entry: mTOR (Homo sapiens, UniProt P42345) assay, compound Cc1cc(-c2nnc[nH]2)ccc1-c1cnc2c(n1)N1CCOCC1C(=O)N2 (centres unmarked) [Example 138] , pIC50 = 6.60 to 11.30

Lab entry: mTOR (Homo sapiens, UniProt P42345) assay, compound O=C1CNc2ncc(-c3ccc(-c4nc[nH]n4)nc3)nc2N1C[C@H]1CC[C@H](O)CC1 [Example 159] , pIC50 = 6.60 to 11.30

Lab entry: mTOR (Homo sapiens, UniProt P42345) assay, compound O=C1CN(CCC2CCOCC2)c2nc(-c3ccc(-c4nnc[nH]4)c(F)c3)cnc2N1 [Example 60] , pIC50 = 6.60 to 11.30

Lab entry: mTOR (Homo sapiens, UniProt P42345) assay, compound COCCN1C(=O)CNc2ncc(-c3ccc4cn[nH]c4c3)nc21 [Example 189] , pIC50 = 5.00 to 6.00

Lab entry: mTOR (Homo sapiens, UniProt P42345) assay, compound O=C1CN(C2CCOCC2)c2nc(-c3ccc(-c4nc[nH]n4)nc3)cnc2N1 [Example 21] , pIC50 = 6.60 to 11.30

###

What follows is a collection of pIC50 values obtained with mTOR (Homo sapiens).
pIC50: −log10 of the molar value.

Consider the following illustrative entries.
[
  {
    "SMILES INPUT": "CC(C)(O)c1ccc(-c2cnc3c(n2)N([C@@H]2CCOC2)CC(=O)N3)cn1",
    "QUANTITY KIND": "pIC50",
    "TEST VALUE": "6.00 to 6.30"
  },
  {
    "SMILES INPUT": "CCN1C(=O)CNc2ncc(-c3ccc4[nH]ccc4n3)nc21",
    "QUANTITY KIND": "pIC50",
    "TEST VALUE": "5.00 to 6.00"
  },
  {
    "SMILES INPUT": "CO[C@H]1CC[C@@H](CN2C(=O)CNc3ncc(-c4cc(F)c(-c5nc[nH]n5)cc4C)nc32)CC1",
    "QUANTITY KIND": "pIC50",
    "TEST VALUE": "6.60 to 11.30"
  }
]

Consider now this further compound.
Lab entry: mTOR (Homo sapiens) assay, compound O=C1CN(CCC2CCOCC2)c2nc(-c3ccc4cn[nH]c4c3)cnc2N1 , pIC50 = 5.00 to 6.00

###

What follows is a collection of pIC50 values obtained with mTOR (Homo sapiens, UniProt P42345).
pIC50: −log10 of the molar value.

[
  {
    "SMILES INPUT": "C[C@H]1Nc2ncc(-c3ccc(C(C)(C)O)nc3)nc2N(CCC2CCOCC2)C1=O",
    "EXPERIMENTAL SYSTEM": "mTOR (Homo sapiens, UniProt P42345)",
    "pIC50": "6.00 to 6.30"
  },
  {
    "SMILES INPUT": "O=C1CN(Cc2cccc(C(F)(F)F)c2)c2nc(-c3ccc(-c4nnc[nH]4)cc3)cnc2N1",
    "EXPERIMENTAL SYSTEM": "mTOR (Homo sapiens, UniProt P42345)",
    "pIC50": "6.60 to 11.30"
  },
  {
    "SMILES INPUT": "Cc1nc(-c2nnc[nH]2)ccc1-c1cnc2c(n1)N(CC1CCOCC1)CC(=O)N2",
    "EXPERIMENTAL SYSTEM": "mTOR (Homo sapiens, UniProt P42345)",
    "pIC50": "6.30 to 6.60"
  }
]

Consider now this further compound.
Lab entry: mTOR (Homo sapiens, UniProt P42345) assay, compound COCCN1C(=O)CNc2ncc(-c3cc(F)c(-c4nc[nH]n4)cc3C)nc21 , pIC50 = 6.60 to 11.30

###

The entries below are paired with their reported IC50.
- EXPERIMENTAL SYSTEM: mTOR (Homo sapiens, UniProt P42345)

[
  {
    "MOLECULE": "Cc1cc(-c2nnc[nH]2)ccc1-c1cnc2c(n1)NCC(=O)N2 [Example 73]",
    "TEST VALUE": "250 to 500 nM"
  }
]

Consider now this further molecule.
Lab entry: mTOR (Homo sapiens, UniProt P42345) assay, molecule CO[C@H]1CC[C@H](N2CC(=O)Nc3ncc(-c4ccc(C(C)(C)O)nc4)nc32)C1 [Example 55] , IC50 = 1000 to 10000 nM
